assay: NCI Yeast Anticancer Drug Screen. Data for the bub3 strain (AID 167); details: S. cerevisiae bub3 mutant strain, at 1.2 µM, active compounds read high
The panel holds about 79,000 compounds, 15% with a hit somewhere; the sample as a whole holds those more often.
Can you tell me growth inhibition for the items I'm about to list?
One number for each entry, in %.

Compound: O=C1C(=O)c2ccccc2C=C1[N+](=O)[O-]
growth inhibition [%]: 0

# batch: return growth inhibition for each of the 3 compounds below
1. Fc1ccc(NC(=S)SCc2ccc3c(c2)OCO3)cc1F
2. FC(F)(F)c1nc2nc(Cl)c(Cl)nc2n1CCCN1CCOCC1
3. NC(=S)N/N=C\c1nccc2ccccc12

-19
0
-9

# return growth inhibition for each item in the list
1. COc1cc(C2SCC(=O)N2c2ccc(-c3ccc(-n4c(-c5ccccc5)nc5ccccc5c4=O)cc3)cc2)cc(OC)c1OC (configuration not stated)
2. [O-][n+]1c2ccc(O)cc2nc2ccc(Br)cc21
3. N#CN1C2CCC1CC(=O)C2

1: -1; 2: 5; 3: 14

// batch mode: one growth inhibition value per listed entry
1. Cc1ccc(Nc2nc3c(=O)n(C)c(=O)n(C)c3nc2Nc2ccc(C)cc2)cc1
2. CC(O)C(O)C(O)C(/C=N\Nc1ccccc1)=N/Nc1ccccc1 (configuration not stated)
3. O=[N+]([O-])c1cccc2nccc(NCCCO)c12
4. C[C@H](CCC(=O)NN)[C@H]1CC[C@H]2[C@@H]3CC[C@@H]4C[C@H](O)CC[C@]4(C)[C@H]3CC[C@]12C
5. COc1ccc2nc3cccc([N+](=O)[O-])c3c(NCCN(CCO)CCO)c2c1
6. O=[N+]([O-])c1cccc([N+](=O)[O-])c1S(=O)(=O)c1ccccc1

1: -3; 2: -3; 3: -12; 4: -3; 5: -13; 6: 0

Items follow; give growth inhibition for each.
1. S=C(N/N=C(/c1ccccc1)c1ccccn1)N1CCCCCC1
2. COC1=CC(=O)C(C2(OC(C)C)OC(=O)C(Cl)=C2Cl)=CC1=O (configuration not stated)
3. C(=C\c1ccccc1)/COc1ccccc1C(N1CCOCC1)n1nc2ccccc2n1 (configuration not stated)
4. COc1ccc(NC(=S)N/N=C(\c2ccccc2)c2ccccn2)cc1
5. CC(=O)Nc1ccc(/C=C(\C#N)c2ccc(C)cc2)cc1

1. 4
2. 0
3. 1
4. -6
5. -27

Quick request: growth inhibition for each listed item, please.
1. CC(=O)ON1C(=O)c2cccc3cccc(c23)C1=O
2. COP(=O)(OC)/C(=C\C1=CN(C(c2ccccc2)(c2ccccc2)c2ccccc2)CN1)NC=O
3. COc1cc2c(c(OC)c1OC)-c1c(cc3c(c1OC)OCO3)CC(C)C(C)(O)C2OC(=O)c1ccccc1 (configuration not stated)
4. O=[N+]([O-])/C=C/c1ccc2ccccc2c1

[2, -27, -8, 6]

----------
experiment: NCI Yeast Anticancer Drug Screen. Data for the rad14 strain (AID 159);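 also: 0% = growth of vehicle-treated control cultures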; conditions: S. cerevisiae rad14 strain growth inhibition; at 3.7 µM; active compounds read high
Compounds without any hit were thinned out: in the full panel of roughly 79,000, 15% have a hit. Activity calls are given as the source filed them. Cut-off read from the data, not from the text of the source: active = growth inhibition above about 70%; inactive = the rest.
Experimental Readout: growth inhibition

Take a look at these entries with their results.
Compound: O=C1C=CC(=O)N1c1ccc2c(c1)Cc1cc(NC(=O)C(F)(F)F)ccc1-2
Measured Value: 31% (inactive)
--
Compound: CCCCCCCCCCNC(=O)OCC
Measured Value: -4% (inactive)
--
Compound: CN(C)c1ccc(Sc2ccc3nc(N)nc(N)c3c2)cc1
Measured Value: -4% (inactive)

Dear colleague, could you please provide growth inhibition for the compounds listed below?
1. O=C1NC(=O)C2C3C=CC(C3)C12 (stereo not given)
2. CCCCOC(=O)N[C@H]1CCc2cc(OC)c(OC)c(OC)c2-c2ccc(SC)c(=O)cc21
3. O=C(Cc1csc2[n+]1C(=O)/C(=C/c1ccc(Cl)cc1)S2)Nc1ccccc1
4. COc1cc2ccc(/C=C\[N+](=O)[O-])cc2cc1OC
5. CCN(CC)[P+](c1ccccc1O)(N(CC)CC)N(CC)CC
6. O=[N+]([O-])c1cc2no[n+]([O-])c2cc1N1CCCCC1
7. O=C1c2cc([N+](=O)[O-])ccc2-c2cccc(F)c21
8. CCNc1nnc(CSc2nc(-c3ccccc3)c(-c3ccccc3)[nH]2)s1

3% (inactive)
2% (inactive)
4% (inactive)
-39% (inactive)
-38% (inactive)
56% (inactive)
11% (inactive)
-4% (inactive)

Kindly give each listed record's growth inhibition.
1. COc1ccc2nc3c([N+](=O)[O-])ccc(NCCN(C)C)c3c(NCCN(C)C)c2c1
2. COCCOC(=O)CCn1cc(F)c(=O)[nH]c1=O
3. C=CCC1=C(C)C(OC(=O)/C=C/c2ccccc2)CC1=O (stereo not given)
4. O=C(O)c1ccccc1-c1ccccc1C(=O)Nc1ccc2c(c1)Cc1ccccc1-2

["-3% (inactive)", "0% (inactive)", "2% (inactive)", "9% (inactive)"]

----------
Hi there, I'd appreciate the recorded growth inhibition for every entry that follows.
assay: NCI Yeast Anticancer Drug Screen. Data for the sgs1 strain (AID 173);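 also: 0% = growth of vehicle-only control cultures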; conditions: S. cerevisiae sgs1 mutant, at 3.7 µM, active compounds read high
About 79,000 compounds went through this panel and 15% of them were active in at least one assay; those are over-represented in the sample as a whole.
Answers are plain numbers, in %.

For orientation, consider the following solved cases.
Compound: C=C1CC(Cn2cc(Br)c(=O)[nH]c2=O)(c2ccc(-c3ccccc3)cc2)OC1=O (stereo unspecified)
growth inhibition (%): 26
//
Compound: COc1cc(C2SCC(=O)N2c2nnc(C(F)(F)F)s2)cc(OC)c1OC (stereo unspecified)
growth inhibition (%): -2
//
Compound: CCS(=O)(=O)c1ccc(/C=C/C=N/NC(=S)NCC(C)C)cc1
growth inhibition (%): 1
//
Compound: C/C(=N\NC(=S)N1CCCCC1)c1cccc(C)n1
growth inhibition (%): 91
//
Compound: O=C1OC(=O)C2CCCC3CCCC1C32 (stereo unspecified)
growth inhibition (%): 78
//
Compound: COc1ccc(/C=C2\SC(=S)N(/C=C/c3nc4ccccc4[nH]c3=O)C2=O)cc1OC
growth inhibition (%): 14
//
Compound: CC(C)/C(Cl)=N\OC(=O)Nc1cccc(Cl)c1
growth inhibition (%): 1
//
Compound: CN(C)c1ccc(C(C#N)=C(C#N)C#N)cc1
growth inhibition (%): -3
//
Compound: CC(=O)[O][Bi]([c]1ccccc1)[c]1ccccc1
growth inhibition (%): 30
//
Compound: C=CCC1=C(C)C(OC(=O)/C=C/c2ccccc2)CC1=O (stereo unspecified)
growth inhibition (%): 26

So what's the measured growth inhibition for this one? COc1ccc(/C(C)=N/OC(=O)c2c(-c3ccccc3Cl)noc2C)cc1CN1CCOCC1 -29

----------
experiment: NCI Yeast Anticancer Drug Screen. Data for the rad14 strain (AID 159);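 also: 0% = growth of vehicle-treated control cultures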; conditions: S. cerevisiae rad14 strain growth inhibition; at 1.2 µM; active compounds read high
About 79,000 compounds went through this panel and 15% of them were active in at least one assay; those are over-represented in the sample as a whole.
Field: growth inhibition. Provide a value for each of the molecules that follow.
One number for each entry, in %.

Past entries and their recorded results:
Molecule: CC(=O)Nc1ccc(SC(C)=O)cc1
growth inhibition, %: -27

Molecule: C[C@H](CCC(=O)NN)[C@H]1CC[C@H]2[C@@H]3CC[C@@H]4C[C@H](O)CC[C@]4(C)[C@H]3CC[C@]12C
growth inhibition, %: 0

Molecule: CCC[CH2][Ge]([CH2]CCC)([CH2]CCC)[O]C(=O)C(OC)c1ccccc1 (stereo not given)
growth inhibition, %: -2

Please look at the items below and tell me growth inhibition for each one, in order.
1. COc1cccc2nc3ccccc3nc12
2. NC1=NS(=O)(=O)N=C(N)C1=Cc1ccc([N+](=O)[O-])o1

-2
-7

----------
assay: NCI Yeast Anticancer Drug Screen. Data for the mgt1 strain (AID 153); conditions: S. cerevisiae mgt1 mutant growth inhibition; at 100.0 µM; active compounds read high
About 79,000 compounds went through this panel and 15% of them were active in at least one assay; those are over-represented in the sample as a whole. Calls of active or inactive are those of the source. No stated cut-off is given here; in the data, active means growth inhibition above about 70%; inactive means the rest.
For each entry below, report its growth inhibition value.

Here's what some known entries look like.
Compound: COc1ccc2sc3cccc(NCCN(C)C)c3c(=O)c2c1
growth inhibition: 15% (inactive)

Compound: CCCCCCCCCCCCCC[N+](C)(CC(=O)[O-])Cc1ccccc1 (stereo unspecified)
growth inhibition: 99% (active)

Compound: COc1ccc(/C=C/C(=O)C(C)(C)Br)cc1
growth inhibition: 71% (active)

Go through the list and state growth inhibition for each entry.
1. CCC(C(=O)O)C1=C(c2ccccc2)CCc2ccccc21 (stereo unspecified)
2. S=c1[nH]nc(Nc2ccc(Cl)cc2)s1
3. CCC(=O)OCCn1c2nc(=O)[nH]c(=O)c-2nc2cc(C)c(C)cc21

80% (active)
19% (inactive)
88% (active)
